- assayInfo: 8-day repeat-dose study, tolerability (blood chemistry, hematology, adverse events) in tumor-bearing dogs
- Type: in vivo, dog
- conditionDetails: Dog 1; Post: 30 min after last injection on day 8; 10 mg s.c. once daily for 8 days
Where a SMILES comes first, the peptide text is derived from it. [ ]: non-standard residue; d: D form. Hyp = O=C(O)[C@@H]1C[C@@H](O)CN1
observable: Albumin (g/dL)
Answers are plain numbers, in g/dL.

Exercise: Recall and state the measured Albumin for CC(C)[C@@H]1NC(=O)[C@@H]2C[C@@H](O)CN2C(=O)[C@H]([C@@H](C)O)NC(=O)[C@H](CCCCN)NC(=O)[C@H](CCC(=O)O)NC(=O)[C@H](CC(N)=O)NC(=O)CNC(=O)[C@@H]2C[C@@H](O)CN2C(=O)[C@H](CC(N)=O)NC1=O [AFPep] (cyclo(EKT[Hyp]VN[Hyp]GN)) .
Key: 3

----------
- assayInfo: Pharmacokinetics in dogs
- Format: in vivo
- conditionDetails: sc; dog; s.c.; 4 mg/kg; plasma LC/MS/MS; read-out: AUC (converted)
Where a SMILES comes first, the peptide text is derived from it. [ ]: non-standard residue; d: D form. Hyp = O=C(O)[C@@H]1C[C@@H](O)CN1
observable: AUC (ng·h/mL)
Give bare numbers, in ng·h/mL.

Exercise: Recall and state the measured AUC for CC(C)[C@@H]1NC(=O)[C@@H]2C[C@@H](O)CN2C(=O)[C@H]([C@@H](C)O)NC(=O)[C@H](CCCCN)NC(=O)[C@H](CCC(=O)O)NC(=O)[C@H](CC(N)=O)NC(=O)CNC(=O)[C@@H]2C[C@@H](O)CN2C(=O)[C@H](CC(N)=O)NC1=O [AFPep] (cyclo(EKT[Hyp]VN[Hyp]GN)) .
Key: 13500

----------
- assayInfo: Pharmacokinetics in dogs
- Assay type: in vivo
- conditionDetails: iv; dog; i.v.; 4 mg/kg; plasma LC/MS/MS; read-out: AUC (converted)
Where a SMILES comes first, the peptide text is derived from it. [ ]: non-standard residue; d: D form. Hyp = O=C(O)[C@@H]1C[C@@H](O)CN1
observable: AUC
Put your answer as a value accompanied by its unit after it.

Exercise: Recall and state the measured AUC for CC(C)[C@@H]1NC(=O)[C@@H]2C[C@@H](O)CN2C(=O)[C@H]([C@@H](C)O)NC(=O)[C@H](CCCCN)NC(=O)[C@H](CCC(=O)O)NC(=O)[C@H](CC(N)=O)NC(=O)CNC(=O)[C@@H]2C[C@@H](O)CN2C(=O)[C@H](CC(N)=O)NC1=O [AFPep] (cyclo(EKT[Hyp]VN[Hyp]GN)) .
Key: 15000 ng·h/mL

----------
- assayInfo: 8-day repeat-dose study, tolerability (blood chemistry, hematology, adverse events) in tumor-bearing dogs
- Assay type: in vivo, dog
- conditionDetails: Dog 5; Post: 30 min after last injection on day 8; 10 mg s.c. once daily for 8 days
Where a SMILES comes first, the peptide text is derived from it. [ ]: non-standard residue; d: D form. Hyp = O=C(O)[C@@H]1C[C@@H](O)CN1
observable: HGB (g/dL)
Numbers only, in g/dL.

Exercise: Recall and state the measured HGB for CC(C)[C@@H]1NC(=O)[C@@H]2C[C@@H](O)CN2C(=O)[C@H]([C@@H](C)O)NC(=O)[C@H](CCCCN)NC(=O)[C@H](CCC(=O)O)NC(=O)[C@H](CC(N)=O)NC(=O)CNC(=O)[C@@H]2C[C@@H](O)CN2C(=O)[C@H](CC(N)=O)NC1=O [AFPep] (cyclo(EKT[Hyp]VN[Hyp]GN)) .
Key: 18
